Reference for the values: patent US6472526B1

Provide the recorded pIC50 for the entries that follow.
Measurement target: Ras farnesyl transferase (Rattus norvegicus, UniProt Q02293+Q04631)
Construct: endogenous in cells; host or cells: Rat2 fibroblasts transformed with H-Ras or with an H-Ras/K-Ras C-terminus fusion
Measurement description: In vivo (cellular) inhibitory activity for Ras farnesyl transferase, Rat2 cell line which expresses C-Harvey-Ras protein
Type: cell-based
Measurement context: Rat2 cell line expressing C-Harvey-Ras; concentration inhibiting 50% of farnesyl bonding of Ras protein; read-out: H-Ras CIC50
// pIC50: -log10(molar conc.)

// map C[C@@H](c1ccccc1)n1cncc1Cn1cc(C(=O)N2CCN(C)CC2)c(-c2cccc3ccccc23)c1 to recorded pIC50 (system: Ras farnesyl transferase (Rattus norvegicus, UniProt Q02293+Q04631))
7.90

// map CN1CCN(C(=O)c2cn(Cc3cncn3CCc3cccc4ccccc34)cc2-c2cccc3ccccc23)CC1 to recorded pIC50 (system: Ras farnesyl transferase (Rattus norvegicus, UniProt Q02293+Q04631))
7.82

// map N#Cc1ccc(Cn2cncc2Cn2cc(C(=O)c3cccs3)c(-c3cccc4ccccc34)c2)cc1 to recorded pIC50 (system: Ras farnesyl transferase (Rattus norvegicus, UniProt Q02293+Q04631))
6.70

----------
Measurement target: Ras farnesyl transferase (Rattus norvegicus, UniProt Q02293+Q04631)
Construct: endogenous in cells; host or cells: Rat2 fibroblasts transformed with H-Ras or with an H-Ras/K-Ras C-terminus fusion
Measurement description: In vivo (cellular) inhibitory activity for Ras farnesyl transferase, Rat2 cell line transformed with fused protein of H-Ras substituted with polybasic lysine domain at C-terminus of K-Ras
Type: cell-based
Measurement context: Rat2 cell line transformed with H-Ras fused with polybasic lysine domain of K-Ras C-terminus; concentration inhibiting 50% of farnesyl bonding; read-out: K-Ras CIC50
Measurement name: IC50

// lookup IC50 for COC(=O)[C@H](CC(C)C)NC(=O)c1cn(Cc2cncn2Cc2ccc(C#N)cc2)cc1-c1cccc2ccccc12 [Compound 102]
> 50 µM

// lookup IC50 for CSCc1ccc(C(=O)c2cn(Cc3c[nH]cn3)cc2-c2cccc3ccccc23)cc1 [Compound 61]
10 to 100 µM

// lookup IC50 for CN1CCN(C(=O)c2cn(Cc3cncn3CCc3cccc4ccccc34)cc2-c2cccc3ccccc23)CC1 [Compound 32]
10 to 50 µM

// lookup IC50 for COCCN(C)C(=O)c1cn(Cc2cncn2[C@@H](C)c2ccccc2)cc1-c1cccc2ccccc12 [Compound 11]
10 to 50 µM

----------
Measurement target: Ras farnesyl transferase (Homo sapiens, UniProt P49354+P49356)
Construct: made in house
Measurement description: In vitro inhibitory activity for Ras farnesyl transferase, K-Ras substrate
Assay type: biochemical
Measurement context: in vitro farnesyl transferase assay, K-Ras; read-out: K-Ras IC50
Measurement name: IC50 (nM)
Enter your answer as a number in nM; do not include the unit.

// lookup IC50 for COCCN(C)C(=O)c1cn(Cc2cncn2CCc2ccc(F)cc2)cc1-c1cccc2ccccc12
2

// lookup IC50 for N#Cc1ccc(Cn2cncc2Cn2cc(C(=O)N3CCOCC3)c(-c3cccc4ccccc34)n2)cc1
2000

// lookup IC50 for CN1CCN(C(=O)c2cn(Cc3cncn3Cc3ccc(F)cc3)cc2-c2cccc3ccccc23)CC1
10

----------
Provide the recorded pIC50 for the entries that follow.
Measurement target: Ras farnesyl transferase (Homo sapiens, UniProt P49354+P49356)
Construct: made in house
Measurement description: In vitro inhibitory activity for Ras farnesyl transferase, H-Ras substrate
Assay type: biochemical
Measurement context: recombinant farnesyl transferase 4.5 nM, Ras substrate protein 1.5 μM, tritium-farnesylpyrophosphate 0.15 μM, 30 minutes at 37° C.; read-out: H-Ras IC50
// pIC50: -log10(molar conc.)

// lookup pIC50 for COCCN(C)C(=O)c1sc(Cc2cncn2CC2CCN(C(=O)OCc3ccccc3)CC2)nc1-c1cccc2ccccc12
5.34

// lookup pIC50 for CSCC[C@H](NC(=O)c1cn(Cc2cncn2Cc2ccc(C#N)cc2)cc1-c1cccc2ccccc12)C(=O)O
8.00

// lookup pIC50 for N#Cc1ccc(Cn2cncc2Cn2cc(C(=O)c3ccsc3)c(-c3cccc4ccccc34)c2)cc1
8.00

// lookup pIC50 for O=C(c1cn(Cc2c[nH]cn2)cc1-c1cccc2ccccc12)N1CCSC1
7.37

// lookup pIC50 for O=C(NCc1ccccc1)c1cn(Cc2c[nH]cn2)cc1-c1cccc2ccccc12
6.59

// lookup pIC50 for COCCN(C)C(=O)c1cn(Cc2cncn2[C@@H](C)c2ccccc2)cc1-c1cccc2ccccc12
8.40

// lookup pIC50 for CN(C)CCN(C)C(=O)c1cn(Cc2cncn2Cc2ccc3c(c2)OCO3)cc1-c1cccc2ccccc12
7.33

// lookup pIC50 for CN1CCN(C(=O)c2cn(Cc3cncn3CCc3ccccc3)cc2-c2cccc3ccccc23)CC1
8.92

// lookup pIC50 for CN1CCN(C(=O)c2cn(Cc3cncn3Cc3ccc(F)cc3)cc2-c2cccc3ccccc23)CC1
8.70

// lookup pIC50 for CN1CCN(C(=O)c2cn(Cc3cncn3Cc3ccccc3Cl)cc2-c2cccc3ccccc23)CC1
9.19

// lookup pIC50 for O=C(c1cccc(Br)c1)c1cn(Cc2c[nH]cn2)cc1-c1cccc2ccccc12
6.82

// lookup pIC50 for CSCCc1ccc(C(=O)c2cn(Cc3c[nH]cn3)cc2-c2cccc3ccccc23)cc1
7.17

// lookup pIC50 for COCCN(C)C(=O)c1cn(Cc2cncn2CCc2ccccc2)cc1-c1cccc2ccccc12
8.70

// lookup pIC50 for O=C(c1nc(Cc2cncn2Cc2ccc(Cl)cc2)sc1-c1cccc2ccccc12)N1CCOCC1
7.05

// lookup pIC50 for O=C(c1cccs1)c1cn(Cc2c[nH]cn2)cc1-c1cccc2ccccc12
6.60

// lookup pIC50 for CCOC(=O)c1nc(Cc2cnc[nH]2)oc1-c1cccc2ccccc12
4.92

// lookup pIC50 for COCCN(C)C(=O)c1cn(Cc2cncn2Cc2cccc3ccccc23)cc1-c1cccc2ccccc12
8.43

// lookup pIC50 for COCCN(C)C(=O)c1nc(Cc2cncn2Cc2ccc(Cl)cc2)sc1-c1cccc2ccccc12
8.70

// lookup pIC50 for COCCN(C)C(=O)c1cn(Cc2cncn2Cc2ccc(C#N)cc2)cc1-c1cccc2ccccc12
9.22

// lookup pIC50 for COc1cccc(C(=O)c2cn(Cc3c[nH]cn3)cc2-c2cccc3ccccc23)c1
6.52

// lookup pIC50 for COCCN(C)C(=O)c1cn(Cc2cncn2CCc2cccc3ccccc23)cc1-c1cccc2ccccc12
8.70

// lookup pIC50 for N#Cc1ccc(Cn2cncc2Cn2cc(C(=O)c3cccc(Br)c3)c(-c3cccc4ccccc34)c2)cc1
8.40

// lookup pIC50 for COC(=O)C(CCSC)NC(=O)c1cn(Cc2cncn2Cc2ccc(C#N)cc2)cc1-c1cccc2ccccc12 (stereo in doubt)
5.74

// lookup pIC50 for O=C(Nc1ccccc1)c1cn(Cc2c[nH]cn2)cc1-c1cccc2ccccc12
6.40

// lookup pIC50 for O=C(c1cn(Cc2c[nH]cn2)cc1-c1ccc2c3c(cccc13)CC2)N1CCOCC1
4.92

// lookup pIC50 for COCCN(C)C(=O)c1cn(Cc2cncn2Cc2ccccc2Cl)cc1-c1cccc2ccccc12
8.57

// lookup pIC50 for N#Cc1ccc(C(=O)c2cn(Cc3c[nH]cn3)cc2-c2cccc3ccccc23)cc1
6.70

// lookup pIC50 for CN1CCN(C(=O)c2cn(Cc3cncn3CCc3ccc(O)cc3)cc2-c2cccc3ccccc23)CC1
9.00

// lookup pIC50 for COCCN(C)C(=O)c1cn(Cc2cncn2CC2CCCCC2)cc1-c1cccc2ccccc12
8.40

// lookup pIC50 for O=C(NCCO)c1cn(Cc2c[nH]cn2)cc1-c1cccc2ccccc12
6.49

// lookup pIC50 for CN1CCN(C(=O)c2cn(Cc3cncn3CCc3ccc4ccccc4c3)cc2-c2cccc3ccccc23)CC1
8.40
